biological target: recombinant human CETP (Homo sapiens, UniProt P11597); test: CETP in vitro fluorometric assay (Roar Biomedical), cholesterol ester transfer from HDL to LDL; conditions: recombinant human CETP from CHO cells; 3 hours at 37° C.; fluorescence ex 485 nm / em 535 nm; compound concentrations between 1 nM and 30 μM; read-out: IC50 values for inhibition of CETP
Label key: label 1 means IC50 under 400 nM; label 0 means IC50 of 400 nM or more.

Solved cases below.
CC1(C)Cc2nc(C3CCCC3)c3c(c2[C@@H](O)C1)C1(CCCC1)O[C@@H]3c1ccc(F)cc1	label 1
CC(C)c1nc2c(c3c1[C@@H](c1ccc(C(F)(F)F)cc1)OC31CCCC1)[C@@H](O)CC(C)(C)[C@H]2O	label 1

IC50 strictly < 400 nM for this compound? "CC1(C)Cc2nc(C3CCOCC3)c3c(c2[C@@H](O)C1)C1(CCOCC1)O[C@@H]3c1ccc(C(F)(F)F)cc1" label 1

# iterate: "CC(C)c1nc2c(c3c1[C@@H](c1cnc(C(C)(C)C)nc1)OC31CCCC1)[C@@H](O)CC(C)(C)C2" label 0

Similarly, "CC(C)c1nc2c(c3c1[C@@H](c1ccc(C4(C)CC4)cc1)OC31CCCC1)[C@@H](O)CC(C)(C)C2" ? label 1

====

Assign log10(IC50) to each entry below.
target: recombinant human CETP (Homo sapiens); experiment: CETP in vitro fluorometric assay (Roar Biomedical), cholesterol ester transfer from HDL to LDL; settings: recombinant human CETP from CHO cells; 3 hours at 37° C.; fluorescence ex 485 nm / em 535 nm; compound concentrations between 1 nM and 30 μM; read-out: IC50 values for inhibition of CETP
Parameter value (number): base-10 log of IC50 in nM.

For orientation, consider the following solved cases.
CC1(C)Cc2nc(C3CCOCC3)c3c(c2[C@@H](O)C1)C1(CCCC1)O[C@@H]3c1ccc(C(F)(F)F)cc1 [1(5)]	1.62
CC(C)c1nc2c(c3c1[C@H](c1ccc(C(C)(C)C#N)cc1)OC31CCCC1)[C@@H](O)CC(C)(C)C2 [1(23)]	3.33
CC(C)c1nc2c(c3c1[C@@H](c1ccc(C(C)(C)O)cc1)OC31CCCC1)[C@@H](O)CC(C)(C)C2 [1(26)]	2.94

Please supply log10(IC50) for each of the following items, keeping them in order.
1. CC(C)c1nc2c(c3c1[C@@H](c1ccc(C4CC4)cc1)OC31CCCC1)[C@@H](O)CC(C)(C)C2 [1(45)]
2. CC(C)c1nc2c(c3c1[C@@H](c1ccc(C(C)(C)C)cc1)OC3(C)C)[C@@H](O)CC(C)(C)C2 [1(18)]

1. 2.09
2. 2.56

====

Please provide measured pIC50 for the entries that follow.
Target: recombinant human CETP (Homo sapiens, UniProt P11597)
Sequence (P11597 18-493): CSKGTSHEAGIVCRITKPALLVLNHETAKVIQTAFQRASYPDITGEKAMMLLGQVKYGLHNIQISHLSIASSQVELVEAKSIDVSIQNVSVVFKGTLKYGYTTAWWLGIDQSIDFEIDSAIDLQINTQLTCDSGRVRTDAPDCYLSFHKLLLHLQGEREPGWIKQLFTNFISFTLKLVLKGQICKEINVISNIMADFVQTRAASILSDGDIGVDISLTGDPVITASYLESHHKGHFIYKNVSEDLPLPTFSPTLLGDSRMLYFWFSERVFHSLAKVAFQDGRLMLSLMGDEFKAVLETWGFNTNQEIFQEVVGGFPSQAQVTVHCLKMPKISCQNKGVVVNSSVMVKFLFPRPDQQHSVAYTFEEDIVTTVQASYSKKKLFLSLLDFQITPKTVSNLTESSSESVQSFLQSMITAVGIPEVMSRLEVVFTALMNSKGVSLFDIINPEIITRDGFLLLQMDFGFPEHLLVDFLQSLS
Assay: CETP in vitro fluorometric assay (Roar Biomedical), cholesterol ester transfer from HDL to LDL
Settings: recombinant human CETP from CHO cells; 3 hours at 37° C.; fluorescence ex 485 nm / em 535 nm; compound concentrations between 1 nM and 30 μM; read-out: IC50 values for inhibition of CETP
Numbers only, as −log10 of the molar value.

Guide cases for pIC50, answers given:
CC(C)c1nc2c(c3c1[C@@H](c1ccc(C(F)(F)F)cc1)OC3(C)C)[C@@H](O)CC(C)(C)C2	6.34
CC1(C)Cc2nc(C3CCOCC3)c3c(c2[C@@H](O)C1)C1(CCCC1)O[C@@H]3c1ccc(C(C)(C)C)cc1	7.13
CC(C)c1nc2c(c3c1[C@@H](c1ccc(C(F)(F)F)nc1)OC31CCCC1)[C@@H](O)CC(C)(C)C2	6.82

The following compounds each have a reported value; give each one's pIC50.
1. CC(C)c1nc2c(c3c1[C@@H](c1ccc(C(F)(F)F)cc1)OC31CCCC1)[C@@H](O)CC1(CCC1)C2
2. CC(C)c1nc2c(c3c1[C@@H](c1ccc(C(F)(F)F)c(F)c1)OC31CCCC1)[C@@H](O)CC(C)(C)C2
3. CC(C)c1nc2c(c3c1[C@@H](c1ccc(C(C)(F)F)cc1)OC31CCCC1)[C@@H](O)CC(C)(C)C2

7.68
7.37
7.21

pIC50 lookup needed for "CC(C)c1ccc([C@H]2OC3(CCCC3)c3c2c(C(C)C)nc2c3[C@@H](O)CC(C)(C)C2)cc1" , thanks. 7.11

====

Target: recombinant human CETP (Homo sapiens)
Sequence (P11597 18-493): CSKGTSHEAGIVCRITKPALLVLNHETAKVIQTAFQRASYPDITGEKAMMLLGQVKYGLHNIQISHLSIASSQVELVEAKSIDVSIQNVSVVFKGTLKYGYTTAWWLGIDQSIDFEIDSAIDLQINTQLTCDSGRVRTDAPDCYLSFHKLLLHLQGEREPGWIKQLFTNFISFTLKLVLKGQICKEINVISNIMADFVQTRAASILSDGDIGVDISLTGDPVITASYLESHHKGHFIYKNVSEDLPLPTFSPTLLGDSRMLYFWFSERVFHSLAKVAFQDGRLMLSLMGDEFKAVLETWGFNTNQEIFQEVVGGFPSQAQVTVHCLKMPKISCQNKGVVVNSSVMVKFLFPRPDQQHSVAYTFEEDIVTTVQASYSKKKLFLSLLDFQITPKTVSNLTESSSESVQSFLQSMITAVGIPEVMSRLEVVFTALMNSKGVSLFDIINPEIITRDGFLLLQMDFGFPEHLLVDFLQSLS
Assay: CETP in vitro fluorometric assay (Roar Biomedical), cholesterol ester transfer from HDL to LDL
Conditions: recombinant human CETP from CHO cells; 3 hours at 37° C.; fluorescence ex 485 nm / em 535 nm; compound concentrations between 1 nM and 30 μM; read-out: IC50 values for inhibition of CETP
pIC50: −log10 of the molar value.
Mark criterion met for reported pIC50 of 7 or greater; mark criterion not met for anything smaller.

CC(C)c1nc2c(c3c1[C@@H](c1ccc(C(C)(C)C#N)cc1)OC31CCCC1)[C@@H](O)CC(C)(C)C2	criterion met
CC1(C)Cc2nc(C3CCCC3)c3c(c2[C@@H](O)C1)C(C)(C)O[C@@H]3c1ccc(C(C)(C)C)cc1	criterion not met
CC(=O)O[C@H]1c2nc(C(C)C)c3c(c2[C@@H](O)CC1(C)C)C1(CCCC1)O[C@@H]3c1ccc(C(F)(F)F)cc1	criterion not met
CC(C)c1nc2c(c3c1[C@@H](c1ccc(C#N)cc1)OC31CCCC1)[C@@H](O)CC(C)(C)C2	criterion not met

Let us examine a further case.
In plain terms: is recorded pIC50 at least 7 for "CC(C)Cc1ccc([C@H]2OC3(CCCC3)c3c2c(C(C)C)nc2c3[C@@H](O)CC(C)(C)C2)cc1" ? criterion not met

====

target: recombinant human CETP (Homo sapiens); construct: made in house; host or cells: CHO cells (protein secreted into conditioned medium); assay: CETP in vitro fluorometric assay (Roar Biomedical), cholesterol ester transfer from HDL to LDL; format: biochemical; conditions: recombinant human CETP from CHO cells; 3 hours at 37° C.; fluorescence ex 485 nm / em 535 nm; compound concentrations between 1 nM and 30 μM; read-out: IC50 values for inhibition of CETP
pIC50: −log10 of the molar value.
Classes based on pIC50: lower (below 6), middle (6 to below 7), upper (7 or more)

CC(C)c1nc2c(c3c1[C@@H](c1ccc(C(F)(F)F)s1)OC31CCCC1)[C@@H](O)CC(C)(C)C2	middle
CC(C)c1nc2c(c3c1[C@@H](c1cc(F)cc(F)c1)OC31CCCC1)[C@@H](O)CC(C)(C)C2	lower
CC(C)c1nc2c(c3c1[C@@H](c1ccc(C(C)(C)C)cc1)OC31CCOCC1)[C@@H](O)CC(C)(C)C2	upper
CCc1nc2c(c3c1[C@@H](c1ccc(C(F)(F)F)cc1)OC31CCCC1)[C@@H](O)CC(C)(C)C2	middle
CC(C)c1nc2c(c3c1[C@@H](c1ccc(C(F)(F)F)cc1)OC31CCOCC1)[C@@H](O)CC(C)(C)C2	upper

Which class is correct for the following molecule? "CC(C)c1nc2c(c3c1[C@@H](c1ccc(C(C)(C)C)cc1)OC31CCCC1)[C@@H](O)CC(C)(C)C2" upper

Next: "CC1(C)Cc2nc(C3CCOCC3)c3c(c2[C@@H](O)C1)C1(CCCC1)O[C@H]3c1ccc(C(F)(F)F)cc1" lower

// next record "CC(C)c1nc2c(c3c1[C@H](c1ccc(C(F)(F)F)cc1)O[C@]31C=CCC1)[C@@H](O)CC(C)(C)C2" lower

Now consider "CC(C)c1nc2c(c3c1[C@@H](c1ccc(C(F)(F)F)cc1)OC31CCCC1)[C@@H](O)CC(C)(C)C2" and answer again. upper
